Field: pKi. System: Carbonic anhydrase 9 (Homo sapiens, UniProt Q16790). Provenance: assorted publications.
Please treat pKi as minus the base-10 logarithm of the molar concentration.

Input: // fetch pKi for CC1(C)O[C@@H]2[C@@H](CO[C@@]3(CNC(=S)Nc4ccc(S(=O)(=O)Nc5nnc(S(N)(=O)=O)s5)cc4F)OC(C)(C)O[C@@H]23)O1 ; system: Carbonic anhydrase 9 (Homo sapiens, UniProt Q16790)
Output: 7.12

Input: With Carbonic anhydrase 9 (Homo sapiens, UniProt Q16790) as the test system, provide measured pKi for this molecule: NS(=O)(=O)c1cn(CC(=O)NS(=O)(=O)c2ccc([N+](=O)[O-])cc2)ccc1=O
Output: 7.19

Input: Under Carbonic anhydrase 9 (Homo sapiens, UniProt Q16790): report pKi of CC(=O)OC[C@H]1O[C@@H](O[C@H]2[C@H](OC(C)=O)[C@@H](OC(C)=O)[C@H](SNCCc3ccc(S(N)(=O)=O)cc3)O[C@@H]2COC(C)=O)[C@H](OC(C)=O)[C@@H](OC(C)=O)[C@H]1OC(C)=O .
Output: 7.01

Input: Report pKi from Carbonic anhydrase 9 (Homo sapiens, UniProt Q16790) testing of NS(=O)(=O)c1ccc(/N=C/c2ccc(-c3ccccn3)cc2)cc1
Output: 6.79
